All values here come from paper PMC6690775.

target: mortalin-NBD (Homo sapiens, UniProt P38646); test: ITC binding of modified ADP analogues to mortalin-NBD
Sequence (P38646 52-431): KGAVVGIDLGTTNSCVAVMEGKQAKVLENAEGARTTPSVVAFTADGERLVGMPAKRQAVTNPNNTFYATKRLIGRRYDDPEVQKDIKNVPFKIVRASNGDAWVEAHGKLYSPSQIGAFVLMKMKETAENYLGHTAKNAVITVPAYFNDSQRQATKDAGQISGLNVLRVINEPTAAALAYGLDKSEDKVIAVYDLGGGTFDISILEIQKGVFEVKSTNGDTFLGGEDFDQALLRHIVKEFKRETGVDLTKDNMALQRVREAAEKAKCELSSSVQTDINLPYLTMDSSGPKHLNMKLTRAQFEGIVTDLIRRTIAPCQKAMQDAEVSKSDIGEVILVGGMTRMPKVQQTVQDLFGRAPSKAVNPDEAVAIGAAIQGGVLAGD
assay_endpoint: pKd
A value of pKd is the negative decimal logarithm of a concentration given in moles per litre.

O=P(O)(O)OP(=O)(O)OC[C@H]1O[C@@H](n2cnc3c(NC4CCCCC4)ncnc32)[C@H](O)[C@@H]1O [6-cHe ADP, N6-cyclohexyladenosine-5’-diphosphate] = 4.85
Cc1cccc(CNc2ncnc3c2ncn3[C@@H]2O[C@H](COP(=O)(O)OP(=O)(O)O)[C@@H](O)[C@H]2O)c1 = 4.94

Query: Look at this molecule and give its reported pKd. O=P(O)(O)OP(=O)(O)OC[C@H]1O[C@@H](n2cnc3c(NCc4ccccc4)ncnc32)[C@H](O)[C@@H]1O [6-Bn ADP, N6-benzyladenosine-5’-diphosphate]
Reply: 5.45

====

molecular target: mortalin-NBD (Homo sapiens, UniProt P38646); test: Competitive inhibition of ATPase activity; type: biochemical; details: read-out: KIapp; mortalin-NBD 1 μM, ATP 50 μM, 25 °C, Morrison fit
Attribute: pKi
Interpret pKi as the negative base-10 log of the concentration measured in mol/L.

Nc1nc(Cl)nc2c1ncn2[C@@H]1O[C@H](COP(=O)(O)OP(=O)(O)O)[C@@H](O)[C@H]1O = 4.35

Next:
Query: # query: pKi of entry Nc1ncnc2c1ncn2[C@@H]1O[C@H](COP(=O)(O)OP(=O)(O)O)[C@@H](O)[C@H]1O [ADP, reference compound]
Reply: 3.45

====

molecular target: mortalin-NBD (Homo sapiens); test: Competitive inhibition of ATPase activity; format: biochemical
A collection of compounds and their measured pKi
Just the number, please; pKi means minus log10 of the concentration in mol/L.

Look over these answered cases.
O=P(O)(O)OP(=O)(O)OC[C@H]1O[C@@H](n2cnc3c(NCc4ccco4)ncnc32)[C@H](O)[C@@H]1O [6-Fu ADP, N6-furfuryladenosine-5’-diphosphate] = 3.25
O=P(O)(O)OP(=O)(O)OC[C@H]1O[C@@H](n2cnc3c(NCCc4ccccc4)ncnc32)[C@H](O)[C@@H]1O [6-PheEt ADP] = 4.01
CSc1nc(N)c2ncn([C@@H]3O[C@H](COP(=O)(O)OP(=O)(O)O)[C@@H](O)[C@H]3O)c2n1 [2-MeS ADP, 2-methylthio-adenosine-5’-diphosphate] = 3.28
O=P(O)(O)OP(=O)(O)OC[C@H]1O[C@@H](n2cnc3c(NCc4ccccc4)ncnc32)[C@H](O)[C@@H]1O [6-Bn ADP, N6-benzyladenosine-5’-diphosphate] = 4.06
O=P(O)(O)OP(=O)(O)OC[C@H]1O[C@@H](n2cnc3c(NC4CCCCC4)ncnc32)[C@H](O)[C@@H]1O [6-cHe ADP, N6-cyclohexyladenosine-5’-diphosphate] = 3.13

Kindly review the next compound as well.
Query: Please look up its pKi: Cc1cccc(CNc2ncnc3c2ncn3[C@@H]2O[C@H](COP(=O)(O)OP(=O)(O)O)[C@@H](O)[C@H]2O)c1 [6-(3-MeBn) ADP]
Reply: 3.17

====

target: mortalin-NBD (Homo sapiens, UniProt P38646); assay: ITC binding of modified ADP analogues to mortalin-NBD; conditions: ITC, 25 °C, mortalin-NBD, binding entropy change
API: label(entry) gives True if the entry's ΔS is strictly smaller than 20 J/mol·K; on equality or larger values it gives False.

Known results for molecules:
O=P(O)(O)OP(=O)(O)OC[C@H]1O[C@@H](n2cnc3c(NCCc4ccccc4)ncnc32)[C@H](O)[C@@H]1O = True
O=P(O)(O)OP(=O)(O)OC[C@H]1O[C@@H](n2cnc3c(NCc4ccccc4)ncnc32)[C@H](O)[C@@H]1O [6-Bn ADP, N6-benzyladenosine-5’-diphosphate] = False
CSc1nc(N)c2ncn([C@@H]3O[C@H](COP(=O)(O)OP(=O)(O)O)[C@@H](O)[C@H]3O)c2n1 [2-MeS ADP, 2-methylthio-adenosine-5’-diphosphate] = False

Query: Just wondering, is ΔS of O=P(O)(O)OP(=O)(O)OC[C@H]1O[C@@H](n2cnc3c(NCc4ccco4)ncnc32)[C@H](O)[C@@H]1O [6-Fu ADP, N6-furfuryladenosine-5’-diphosphate] below 20 J/mol·K?
Reply: False

Query: Also need O=P(O)(O)OP(=O)(O)OC[C@H]1O[C@@H](n2cnc3c(NC4CCCCC4)ncnc32)[C@H](O)[C@@H]1O [6-cHe ADP, N6-cyclohexyladenosine-5’-diphosphate] , thanks.
Reply: True

Query: Now the same for Nc1ncnc2c1ncn2[C@@H]1O[C@H](COP(=O)(O)OP(=O)(O)O)[C@@H](O)[C@H]1O [ADP, reference compound]
Reply: True

Query: // repeat for Nc1nc(Cl)nc2c1ncn2[C@@H]1O[C@H](COP(=O)(O)OP(=O)(O)O)[C@@H](O)[C@H]1O and report
Reply: False

Query: Proceed to Cc1cccc(CNc2ncnc3c2ncn3[C@@H]2O[C@H](COP(=O)(O)OP(=O)(O)O)[C@@H](O)[C@H]2O)c1
Reply: False
